# Tested On: T1, EsCas13d, nuclease-dead (Eubacterium siraeum, UniProt B0MS50, R295A;H300A;R849A;H854A)
# T1 sequence: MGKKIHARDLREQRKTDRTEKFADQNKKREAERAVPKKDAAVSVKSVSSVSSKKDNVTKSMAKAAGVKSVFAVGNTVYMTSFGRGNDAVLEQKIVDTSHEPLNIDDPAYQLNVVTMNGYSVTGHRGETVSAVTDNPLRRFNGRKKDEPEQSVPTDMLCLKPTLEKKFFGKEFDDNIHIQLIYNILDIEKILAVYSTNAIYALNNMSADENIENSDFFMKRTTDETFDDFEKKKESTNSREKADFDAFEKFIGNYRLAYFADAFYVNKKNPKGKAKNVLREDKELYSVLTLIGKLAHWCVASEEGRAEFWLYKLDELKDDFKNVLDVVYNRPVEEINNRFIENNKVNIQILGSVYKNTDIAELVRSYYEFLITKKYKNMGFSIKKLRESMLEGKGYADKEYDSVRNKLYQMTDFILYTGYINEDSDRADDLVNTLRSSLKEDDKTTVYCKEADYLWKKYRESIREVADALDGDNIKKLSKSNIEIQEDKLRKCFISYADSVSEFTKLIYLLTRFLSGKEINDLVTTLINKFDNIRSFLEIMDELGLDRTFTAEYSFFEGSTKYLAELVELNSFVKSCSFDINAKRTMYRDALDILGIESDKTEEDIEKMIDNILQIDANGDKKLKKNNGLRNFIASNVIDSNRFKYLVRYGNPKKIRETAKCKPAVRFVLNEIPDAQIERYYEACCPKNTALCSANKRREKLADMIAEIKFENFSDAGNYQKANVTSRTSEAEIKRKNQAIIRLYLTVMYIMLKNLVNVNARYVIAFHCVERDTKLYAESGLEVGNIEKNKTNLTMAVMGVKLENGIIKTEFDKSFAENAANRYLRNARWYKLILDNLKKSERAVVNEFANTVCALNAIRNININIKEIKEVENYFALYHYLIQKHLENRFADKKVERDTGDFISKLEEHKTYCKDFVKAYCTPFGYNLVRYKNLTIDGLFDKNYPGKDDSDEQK
# Measurement Description: crRNA (strand 1, pre-loaded); Mg2+; 40 mM Tris-HCl pH 7.5, 150 mM NaCl, 6 mM MgCl2, 1 mM DTT, 0.1% Tween-20, 0.2 mg/ml BSA; 25 C; 10 min per concentration, then washed
# Condition: tags: His6-TwinStrep-SUMO cleaved; N-terminal SNAP kept (SNAP-Surface 488); label: 3' end held by stalled T7 RNA polymerase
Readout Type: Kd (nM)
Record the value in nM, omitting the unit from your answer.

target 1 insC 3' of 22,insG 3' of 6 (mixed) RNA 1: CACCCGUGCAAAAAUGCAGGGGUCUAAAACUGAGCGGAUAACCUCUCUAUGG RNA 2: GGGAAUGGAUCCACAUCUACGAAUUCGUACCCAUAGAGAGGUUAUCCGGCUCACCGAGAUCGGAAGAGCACACGU :: 25.2

Sample target 1 complement block 4-7 (mixed) RNA 1: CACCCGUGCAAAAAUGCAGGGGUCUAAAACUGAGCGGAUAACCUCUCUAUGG RNA 2: GGGAAUGGAUCCACAUCUACGAAUUCGUACCAUAGAGAGGUUAUGGCGUCACCGAGAUCGGAAGAGCACACGU ; Kd observed: 12.6

Where do these numbers come from? They come from paper PMC10786891.
